A collection of compounds and their measured inhibition at 10 µM
Target: Recombinant human GR (Homo sapiens, UniProt P04150)
Construct: purchased Invitrogen P2816
Sequence (P04150 whole entry): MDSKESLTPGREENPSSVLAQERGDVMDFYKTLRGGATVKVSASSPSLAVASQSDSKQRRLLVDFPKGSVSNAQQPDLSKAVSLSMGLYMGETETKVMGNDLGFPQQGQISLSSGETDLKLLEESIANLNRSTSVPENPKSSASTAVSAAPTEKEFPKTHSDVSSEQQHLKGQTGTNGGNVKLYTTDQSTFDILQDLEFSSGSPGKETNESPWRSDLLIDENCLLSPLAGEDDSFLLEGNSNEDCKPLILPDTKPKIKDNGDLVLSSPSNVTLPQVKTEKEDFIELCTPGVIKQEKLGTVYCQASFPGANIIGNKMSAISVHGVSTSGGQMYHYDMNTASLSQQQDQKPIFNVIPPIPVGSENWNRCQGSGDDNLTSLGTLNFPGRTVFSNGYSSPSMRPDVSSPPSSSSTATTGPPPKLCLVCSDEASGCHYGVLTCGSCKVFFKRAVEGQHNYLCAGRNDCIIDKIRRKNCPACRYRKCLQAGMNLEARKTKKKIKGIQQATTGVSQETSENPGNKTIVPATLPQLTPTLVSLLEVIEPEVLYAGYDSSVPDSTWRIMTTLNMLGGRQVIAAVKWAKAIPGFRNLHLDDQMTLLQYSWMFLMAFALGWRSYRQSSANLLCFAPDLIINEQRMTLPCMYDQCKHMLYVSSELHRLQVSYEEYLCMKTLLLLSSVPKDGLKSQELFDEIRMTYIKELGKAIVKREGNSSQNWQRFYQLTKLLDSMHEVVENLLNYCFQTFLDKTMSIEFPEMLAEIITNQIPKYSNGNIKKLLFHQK
Assay: GR competitor assay by fluorescence polarization (binding activity to glucocorticoid receptor)
Conditions: 20 μM test compound solution, 25 μL per well plus 12.5 μL each of 4×GS1 and 4×GR solution; Fluormone GS1 ligand; positive control 2 mM dexamethasone; read-out: GR Binding ratio (%)
observationType: inhibition at 10 µM (%)

compound | observationType | resultNumber
COc1ccc(C(=O)OCc2c(-c3ccc(OC(=O)c4ccccc4C)cc3OC)ccc3c2N(C)C(=O)C(C)(C)N3)cc1 [Compound 5-21] | inhibition at 10 µM | 100
COc1cc(OC(=O)Nc2ccccc2)ccc1-c1ccc2c(c1COC(=O)c1ccc(C)s1)N(C)C(=O)C(C)(C)N2 [Compound 17-16] | inhibition at 10 µM | 88
COc1cc(OC(=O)c2ccoc2)ccc1-c1ccc2c(c1COc1cc(F)ccc1C)N(C)C(=O)C(C)(C)N2 [Compound 14-11] | inhibition at 10 µM | 100
COc1cc(NC(=O)c2ccncc2)ccc1-c1ccc2c(c1COc1cc(F)ccc1C)N(C)C(=O)C(C)(C)N2 [Compound 14-21] | inhibition at 10 µM | 100

---

Quick list: inhibition at 10 µM per entry.
Target: Recombinant human GR (Homo sapiens, UniProt P04150)
Construct: purchased Invitrogen P2816
Assay: GR competitor assay by fluorescence polarization (binding activity to glucocorticoid receptor)
Conditions: 20 μM test compound solution, 25 μL per well plus 12.5 μL each of 4×GS1 and 4×GR solution; Fluormone GS1 ligand; positive control 2 mM dexamethasone; read-out: GR Binding ratio (%)

compound | inhibition at 10 µM [%]
COc1ccc(C(=O)OCc2c(-c3ccc(OC(=O)c4ccccc4C)cc3OC)ccc3c2NC(=O)C(C)(C)N3)cc1 [Compound 1-4] | 91
CCN1C(=O)C(C)(C)Nc2ccc(-c3cc(F)ccc3OC)c(COC(=O)c3ccc(C)cc3)c21 [Compound 5-18] | 100
Cc1ccc(F)cc1OCc1c(-c2ccccc2Cl)ccc2c1N(C)C(=O)C(C)(C)N2 [Compound 6-4] | 98
COc1ccccc1NCc1c(-c2ccc(O)cc2OC)ccc2c1N(C)C(=O)C(C)(C)N2 [Compound 21-3] | 100

---

Measured inhibition at 10 µM of individual entries
Biological target: Recombinant human GR (Homo sapiens)
Construct: purchased Invitrogen P2816
Assay: GR competitor assay by fluorescence polarization (binding activity to glucocorticoid receptor)
Settings: 20 μM test compound solution, 25 μL per well plus 12.5 μL each of 4×GS1 and 4×GR solution; Fluormone GS1 ligand; positive control 2 mM dexamethasone; read-out: GR Binding ratio (%)

molecule | targetOfAssay | inhibition at 10 µM (%)
COc1ccc(C)cc1NCc1c(-c2ccc(F)cc2OC)ccc2c1N(C)C(=O)C(C)(C)N2 [Compound 4-5] | Recombinant human GR (Homo sapiens) | 100
COc1ccc(Cl)cc1-c1ccc2c(c1CNc1cc(F)ccc1C)N(C)C(=O)C(C)(C)N2 [Compound 4-7] | Recombinant human GR (Homo sapiens) | 100
COc1ccc(C(F)(F)F)cc1-c1ccc2c3c1CN(c1ccccc1OC)CN3C(=O)C(C)(C)N2 [Compound 6-38] | Recombinant human GR (Homo sapiens) | 100
COc1ccccc1NCc1c(-c2ccc(OC(=O)c3cccnc3C)cc2OC)ccc2c1N(C)C(=O)C(C)(C)N2 [Compound 21-12] | Recombinant human GR (Homo sapiens) | 100
COc1cc(OC(=O)N(C)C)ccc1-c1ccc2c(c1COc1cc(F)ccc1C)N(C)C(=O)C(C)(C)N2 [Compound 18-2] | Recombinant human GR (Homo sapiens) | 99
COc1cc(OC(=O)c2sccc2Cl)ccc1-c1ccc2c(c1COc1cc(F)ccc1C)N(C)C(=O)C(C)(C)N2 [Compound 15-17] | Recombinant human GR (Homo sapiens) | 95
COc1ccc(C(F)(F)F)cc1-c1ccc2c(c1COc1cc(F)ccc1C)N(C)C(=O)C(C)(C)N2 [Compound 6-19] | Recombinant human GR (Homo sapiens) | 100
COc1cc(NC(=O)c2ccccc2Cl)ccc1-c1ccc2c(c1COc1cc(F)ccc1C)N(C)C(=O)C(C)(C)N2 [Compound 14-22] | Recombinant human GR (Homo sapiens) | 100
C=CCN1C(=O)C(C)(C)Nc2ccc(-c3cc(F)ccc3OC)c(COC(=O)c3ccc(C)cc3)c21 [Compound 5-19] | Recombinant human GR (Homo sapiens) | 100
COc1ccc([N+](=O)[O-])cc1OCc1c(-c2ccc(F)cc2OC)ccc2c1N(C)C(=O)C(C)(C)N2 [Compound 3-16] | Recombinant human GR (Homo sapiens) | 100
COc1ccc([N+](=O)[O-])cc1OCc1c(-c2ccc(OC(=O)c3ccccc3C)cc2OC)ccc2c1N(C)C(=O)C(C)(C)N2 [Compound 5-22] | Recombinant human GR (Homo sapiens) | 99
COc1cc(OC(=O)c2ccccc2Cl)ccc1-c1ccc2c(c1COc1cc(F)ccc1C)N(C)C(=O)C(C)(C)N2 [Compound 14-4] | Recombinant human GR (Homo sapiens) | 100

Attribution: patent US8551991B2
